- Protocol: Toxicokinetics in pregnant New Zealand White rabbits (Example 2)
- Format: in vivo, rabbit
- Experimental Parameters: female, New Zealand White, rabbit, in vivo, po, 250 mg/kg/day; read-out: maternal AUC0-24
Assay Readout: AUC(0-t)
Provide the measurement as a number trailed by its unit.

Task: Given the entry CC(C)NC(=O)COc1cccc(-c2nc(Nc3ccc4[nH]ncc4c3)c3ccccc3n2)c1 , report its measured AUC(0-t).
Result: 15600 ng·h/mL

---

- Protocol: Toxicokinetic analysis in rat plasma (Example 5)
- Type: in vivo
- Experimental Parameters: female, Sprague-Dawley, rat, plasma, oral; 150 mg base/kg/day, females; read-out: AUC0-24
Assay Readout: AUC(0-t) (ng·h/mL)
// return numeric value only (unit: ng·h/mL, not printed)

Task: Would you kindly share the measured AUC(0-t) for CC(C)NC(=O)COc1cccc(-c2nc(Nc3ccc4[nH]ncc4c3)c3ccccc3n2)c1 ?
Result: 99500
